These data points were gathered from patent US9988373B2.

# TGT: human P2X7 receptor (Homo sapiens, UniProt Q99572, R270H)
# Construct: expressed in transfected cells
# Sequence (Q99572 whole entry R270H): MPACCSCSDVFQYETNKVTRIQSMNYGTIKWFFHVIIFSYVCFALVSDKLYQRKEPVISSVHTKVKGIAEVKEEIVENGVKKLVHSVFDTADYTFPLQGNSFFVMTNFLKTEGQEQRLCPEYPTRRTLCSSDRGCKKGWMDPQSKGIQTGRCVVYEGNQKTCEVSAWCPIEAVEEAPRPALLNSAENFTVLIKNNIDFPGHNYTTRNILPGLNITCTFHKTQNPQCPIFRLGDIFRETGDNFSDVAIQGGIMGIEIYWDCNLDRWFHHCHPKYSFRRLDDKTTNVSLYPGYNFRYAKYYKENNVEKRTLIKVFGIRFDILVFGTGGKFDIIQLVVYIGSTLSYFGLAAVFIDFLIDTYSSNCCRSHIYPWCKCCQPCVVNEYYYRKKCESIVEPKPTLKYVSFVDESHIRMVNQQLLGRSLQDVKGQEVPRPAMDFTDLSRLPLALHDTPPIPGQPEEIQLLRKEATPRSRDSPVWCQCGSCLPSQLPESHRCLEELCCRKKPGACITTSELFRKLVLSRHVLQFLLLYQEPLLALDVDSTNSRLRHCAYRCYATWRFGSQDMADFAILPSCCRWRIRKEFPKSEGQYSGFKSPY
# PROCEDURE_SUMMARY: Evaluation of a human P2X7 receptor inhibitory activity (Yo-Pro uptake, BzATP stimulation, FLIPR TETRA)
# Assay type: cell-based
# MEASUREMENT_SETUP: antagonistic activity for the human P2X7 receptor, 1321N1 cell transfected with the human P2X7 receptor gene, Yo-Pro fluorescence, class symbols
Attribute: IC50

1) O=c1ccn(CCc2ccccc2)c(-c2cccc(C(F)(F)F)c2Cl)n1	1000 to 10000 nM

Summary line: COc1cn(Cc2ccccc2CO)c(-c2cccc(C(F)(F)F)c2Cl)nc1=O , human P2X7 receptor (Homo sapiens, UniProt Q99572, R270H), reported IC50 = < 50 nM

Summary line: COc1cn(Cc2ccccc2OC(F)(F)F)c(-c2cccc(C(F)(F)F)c2Cl)nc1=O , human P2X7 receptor (Homo sapiens, UniProt Q99572, R270H), reported IC50 = < 50 nM

Summary line: COc1cn(Cc2cccnc2C(F)(F)F)c(-c2cccc(C(F)(F)F)c2Cl)nc1=O , human P2X7 receptor (Homo sapiens, UniProt Q99572, R270H), reported IC50 = 100 to 500 nM

Summary line: N#Cc1ccccc1Cn1ccc(=O)cc1-c1cccc(C(F)(F)F)c1Cl , human P2X7 receptor (Homo sapiens, UniProt Q99572, R270H), reported IC50 = 500 to 1000 nM

Summary line: COc1cn(Cc2ccncc2)c(-c2cccc(C(F)(F)F)c2Cl)nc1=O , human P2X7 receptor (Homo sapiens, UniProt Q99572, R270H), reported IC50 = 1000 to 10000 nM

Summary line: COc1cn(Cc2cccc(C)c2)c(-c2cccc(C(F)(F)F)c2Cl)nc1=O , human P2X7 receptor (Homo sapiens, UniProt Q99572, R270H), reported IC50 = 100 to 500 nM

Summary line: COc1cn(Cc2ccccc2C)c(-c2ccccc2C(F)(F)F)nc1=O , human P2X7 receptor (Homo sapiens, UniProt Q99572, R270H), reported IC50 = 500 to 1000 nM

Summary line: N#CCn1cc(OCc2ccccc2)c(=O)nc1-c1cccc(C(F)(F)F)c1Cl , human P2X7 receptor (Homo sapiens, UniProt Q99572, R270H), reported IC50 = < 50 nM

Summary line: O=c1ccn(Cc2ccc(Oc3ccccc3)cc2)c(-c2cccc(C(F)(F)F)c2Cl)c1 , human P2X7 receptor (Homo sapiens, UniProt Q99572, R270H), reported IC50 = 1000 to 10000 nM

Summary line: O=c1ccn(Cc2ccccc2Cl)c(-c2cccc(C(F)(F)F)c2Cl)c1 , human P2X7 receptor (Homo sapiens, UniProt Q99572, R270H), reported IC50 = 100 to 500 nM

Summary line: COc1cccc(Cn2cc(Br)c(=O)cc2-c2cccc(C(F)(F)F)c2Cl)c1 , human P2X7 receptor (Homo sapiens, UniProt Q99572, R270H), reported IC50 = 100 to 500 nM

Summary line: NCCOc1cn(Cc2ccccc2)c(-c2cccc(C(F)(F)F)c2Cl)nc1=O , human P2X7 receptor (Homo sapiens, UniProt Q99572, R270H), reported IC50 = 500 to 1000 nM

Summary line: CCOc1cn(Cc2ccccc2)c(-c2cccc(C(F)(F)F)c2Cl)nc1=O , human P2X7 receptor (Homo sapiens, UniProt Q99572, R270H), reported IC50 = 50 to 100 nM

Summary line: N#CCn1cc(-c2ccccc2)c(=O)nc1-c1cccc(C(F)(F)F)c1Cl , human P2X7 receptor (Homo sapiens, UniProt Q99572, R270H), reported IC50 = 100 to 500 nM

---

Attribute: pIC50
# TGT: human P2X7 receptor (Homo sapiens, UniProt Q99572, R270H)
# Construct: expressed in transfected cells
# PROCEDURE_SUMMARY: Evaluation of a human P2X7 receptor inhibitory activity (Yo-Pro uptake, BzATP stimulation, FLIPR TETRA)
# Type: cell-based
# MEASUREMENT_SETUP: antagonistic activity for the human P2X7 receptor, 1321N1 cell transfected with the human P2X7 receptor gene, Yo-Pro fluorescence, class symbols
pIC50: −log10 of the molar value.

Notebook: COc1cn(Cc2cccnc2C)c(-c2cccc(C(F)(F)F)c2Cl)nc1=O , pIC50 read as 7.00 to 7.30

Notebook: CC(C)NC(=O)Nc1cccc(Cn2ccc(=O)cc2-c2cccc(C(F)(F)F)c2Cl)c1 , pIC50 read as 6.30 to 7.00

Notebook: O=c1ccn(Cc2cccc(CO)c2)c(-c2cccc(C(F)(F)F)c2Cl)c1 , pIC50 read as 6.30 to 7.00

Notebook: COc1ccccc1Cn1cc(C#N)c(=O)nc1-c1cccc(C(F)(F)F)c1Cl , pIC50 read as > 7.30

Notebook: N#Cc1ccc(Cn2ccc(=O)cc2-c2cccc(C(F)(F)F)c2Cl)cc1 , pIC50 read as 5.00 to 6.00

Notebook: O=c1ccn(Cc2cccc(F)c2)c(-c2cccc(C(F)(F)F)c2Cl)c1 , pIC50 read as 6.00 to 6.30

---

# TGT: human P2X7 receptor (Homo sapiens, UniProt Q99572, R270H)
# Construct: expressed in transfected cells
# PROCEDURE_SUMMARY: Evaluation of a human P2X7 receptor inhibitory activity (Yo-Pro uptake, BzATP stimulation, FLIPR TETRA)
# Format: cell-based
# MEASUREMENT_SETUP: antagonistic activity for the human P2X7 receptor, 1321N1 cell transfected with the human P2X7 receptor gene, Yo-Pro fluorescence, class symbols
pIC50: −log10 of the molar value.
Attribute: pIC50

1) O=c1ccn(Cc2ccccn2)c(-c2cccc(C(F)(F)F)c2Cl)c1	6.00 to 6.30
2) COc1cn(Cc2ccccc2C)c(-c2ccc(Cl)cc2)nc1=O	5.00 to 6.00
3) Cc1ccccc1Cn1ccc(=O)cc1-c1cccc(Cl)c1Cl	6.30 to 7.00
4) CNc1cn(Cc2ccccc2)c(-c2cccc(C(F)(F)F)c2Cl)nc1=O	6.30 to 7.00

Summary line: COc1cn(Cc2ccccc2C#N)c(-c2cccc(C(F)(F)F)c2Cl)nc1=O , human P2X7 receptor (Homo sapiens, UniProt Q99572, R270H), reported pIC50 = 6.30 to 7.00

Summary line: Cc1ccccc1Cn1cc(OCC#N)c(=O)nc1-c1cccc(C(F)(F)F)c1Cl , human P2X7 receptor (Homo sapiens, UniProt Q99572, R270H), reported pIC50 = > 7.30

Summary line: O=c1cc(-c2cccc(C(F)(F)F)c2Cl)n(Cc2cccc(Cl)c2)cc1Br , human P2X7 receptor (Homo sapiens, UniProt Q99572, R270H), reported pIC50 = 6.30 to 7.00

---

Attribute: IC50
# TGT: human P2X7 receptor (Homo sapiens, UniProt Q99572, R270H)
# Construct: expressed in transfected cells
# PROCEDURE_SUMMARY: Evaluation of a human P2X7 receptor inhibitory activity (Yo-Pro uptake, BzATP stimulation, FLIPR TETRA)
# Assay type: cell-based
# MEASUREMENT_SETUP: antagonistic activity for the human P2X7 receptor, 1321N1 cell transfected with the human P2X7 receptor gene, Yo-Pro fluorescence, class symbols

Below: 3 compounds and their reported IC50.
1) COc1cccc(-c2nc(=O)c(OC)cn2Cc2ccccc2)c1Cl	1000 to 10000 nM
2) O=c1ccn(Cc2c(F)cccc2F)c(-c2cccc(C(F)(F)F)c2Cl)c1	100 to 500 nM
3) COc1cn(Cc2ccc(F)cc2)c(-c2cccc(C(F)(F)F)c2Cl)nc1=O	100 to 500 nM

Summary line: O=c1ccn(Cc2ccccc2OC(F)(F)F)c(-c2cccc(C(F)(F)F)c2Cl)c1 , human P2X7 receptor (Homo sapiens, UniProt Q99572, R270H), reported IC50 = 500 to 1000 nM

Summary line: N#Cc1cccc(Cn2cc(N3CCCC3)c(=O)cc2-c2cccc(C(F)(F)F)c2Cl)c1 , human P2X7 receptor (Homo sapiens, UniProt Q99572, R270H), reported IC50 = 500 to 1000 nM

---

# TGT: human P2X7 receptor (Homo sapiens, UniProt Q99572, R270H)
# Construct: expressed in transfected cells
# PROCEDURE_SUMMARY: Evaluation of a human P2X7 receptor inhibitory activity (Yo-Pro uptake, BzATP stimulation, FLIPR TETRA)
# Format: cell-based
# MEASUREMENT_SETUP: antagonistic activity for the human P2X7 receptor, 1321N1 cell transfected with the human P2X7 receptor gene, Yo-Pro fluorescence, class symbols
PARAMETER_MEASURED: IC50

Below: 3 molecules and their reported IC50.
1) O=c1ccn(Cc2cccc(=O)[nH]2)c(-c2cccc(C(F)(F)F)c2Cl)c1	500 to 1000 nM
2) COc1cn(Cc2ccccc2)c(-c2cccc(F)c2F)nc1=O	500 to 1000 nM
3) O=c1nc(-c2cccc(C(F)(F)F)c2Cl)n(Cc2ccccc2)cc1OCc1ccccc1	< 50 nM

Notebook: COc1cn(Cc2ccccc2C)c(-c2ccc(F)cc2)nc1=O , IC50 read as 1000 to 10000 nM
